Experiment: reversal of MRP1-mediated doxorubicin resistance, pilot screen, H69AR cells, doxorubicin co-treatment (AID 601)
Settings: H69AR cells + 2 uM doxorubicin, CellTiter-Glo, 72 h; at 10 µM; hits give high values
Observation Type: differential viability (reversal) (%)
Answers are plain numbers, in %.

# Smiles Record, differential viability (reversal), %
records = [
    ("COc1ccc(OCCCC(=O)Nc2ccc3c(c2)OCCO3)cc1", -3.62),
    ("COc1ccc(OC)c(NC(=O)CCN2CCN(c3ccccc3F)CC2)c1", 13.1),
    ("CCOC(=O)N1CCN(c2c(N3CCc4ccccc4C3)c(=O)c2=O)CC1", 6.33),
]

(Q) Tell me its differential viability (reversal) given Cc1cc(C)n2cc(CSc3nnnn3-c3ccc(Cl)cc3)nc2n1 as the entry.
(A) 7.13

The measured values listed here are drawn from PubChem BioAssay.
